test system: SNB-19; test: NCI tumour cell line growth inhibition, 48 h
Active and inactive are the calls of the source. Rule as the data show it: active = GI50 up to about 1.1 µM and inactive = higher.
Returns: one label drawn from True = active, False = inactive

compound	classLabel
Cc1ccc(-c2n[nH]c(=O)n2/N=C\c2ccc([N+](=O)[O-])cc2)cc1	False
ON(CCc1ccncc1)Cc1ccccc1	False
O=C1OC(c2ccccc2)=N/C1=C\c1ccc2ccccc2c1	False

Ask: So what was the verdict on C=CCCC(On1c(-c2ccc(Cl)cc2)csc1=S)c1ccccc1 (stereo not given) in this test?
Reply: False

Ask: So what was the verdict on Nc1ncnc2c1ncn2C1CC(OCc2ccccc2[N+](=O)[O-])C(CO)O1 (stereo not given) in this test?
Reply: False

Ask: So what was the verdict on C/C(=C\CNc1ncnc2c1ncn2C1CCCCO1)COP(=O)(O)O (stereo not given) in this test?
Reply: False

Ask: So what was the verdict on CCOc1ccc(/N=N/C2C(=O)N(C(=O)CC(=O)Nc3ccccc3)N=C2C)cc1 (stereo not given) in this test?
Reply: False

Ask: So what was the verdict on C/C=C1/CN2CCC34c5ccccc5N(C)C23C2CC1C4(C(=O)OC)C(O)O2 (stereo not given) in this test?
Reply: False

Ask: So what was the verdict on COc1ccc(/C=N/Nc2nc(=S)[nH]c3[nH]ncc23)cc1 in this test?
Reply: False

Ask: So what was the verdict on COc1ccc(N[S+]([O-])c2cccc(C)c2)cc1 (stereo not given) in this test?
Reply: False

Ask: So what was the verdict on COC(=O)c1ccccc1C1CN=NC12Cc1ccc(C)c(C)c1C2=O (stereo not given) in this test?
Reply: False

Ask: So what was the verdict on COc1cc2cc[n+]3c4cc(OC)c(OC)cc4c(C)cc3c2cc1OC in this test?
Reply: False

Ask: So what was the verdict on O=C1C=CC(=O)C(N(CCO)CCO)=C1.O=C1C=CC2(O)OCCN(CCO)C2=C1 in this test?
Reply: False

Ask: So what was the verdict on COC(=O)CCC(=O)NC1=C(NCc2ccccc2)C(=O)c2ccccc2C1=O in this test?
Reply: False

Ask: So what was the verdict on Cc1ccc(O)c(-c2cscn2)c1 in this test?
Reply: False

Ask: So what was the verdict on CCC(=O)N1C(=O)C(CC)(CC)C(=O)N1C(=O)CC in this test?
Reply: False

Ask: So what was the verdict on [O-][S+](CC1(O)CCCCC1)c1ccccc1 (stereo not given) in this test?
Reply: False

Ask: So what was the verdict on COc1ccc(NCc2cc(OC)c(OC)c(OC)c2)cc1 in this test?
Reply: True

Ask: So what was the verdict on CC(C)OP(=S)(NC(=S)c1ccccc1)OC(C)C in this test?
Reply: False

Ask: So what was the verdict on COc1ccc([C@H]2c3cc4c(cc3OC(O)(CO)[C@H]2C(=O)O)OCO4)c(OC)c1.COc1ccc([C@H]2c3cc4c(cc3OC3(O)COC(=O)[C@@H]23)OCO4)c(OC)c1 (stereo not given in full) in this test?
Reply: False

Ask: So what was the verdict on CC[C@@]1(O)C(=O)OCc2c1cc1n(c2=O)Cc2c-1nc1ccccc1c2/C=N/NC(=O)C[N+](C)(C)C in this test?
Reply: True

Ask: So what was the verdict on CN(C)C12C=CC=CC3=C(c4ccccc4)C(c4ccccc4)=C(c4ccccc4)C31c1ccccc1C2 (stereo not given) in this test?
Reply: False

Ask: So what was the verdict on O=C(NCP(=O)(O)O)c1cccnc1 in this test?
Reply: False

Ask: So what was the verdict on Cc1ccc(S(=O)(=O)Nc2nc3ccccc3c(=O)n2C2CCCCC2)cc1 in this test?
Reply: False

Ask: So what was the verdict on C=CCN1/C(=C2\SC(=S)N(c3ccc(C)cc3)C2=O)Sc2c1nc[nH]c2=O in this test?
Reply: False

Ask: So what was the verdict on COC1/C(=C\C(=O)OC(C)(C)C)c2ccccc2N1C(C)=O (stereo not given) in this test?
Reply: False

All values here come from ChEMBL document CHEMBL1201862.
